# assayed target: full-length nucleophosmin NPM(1-294), recombinant (UniProt P06748 1-294)
# Sequence (P06748 whole entry): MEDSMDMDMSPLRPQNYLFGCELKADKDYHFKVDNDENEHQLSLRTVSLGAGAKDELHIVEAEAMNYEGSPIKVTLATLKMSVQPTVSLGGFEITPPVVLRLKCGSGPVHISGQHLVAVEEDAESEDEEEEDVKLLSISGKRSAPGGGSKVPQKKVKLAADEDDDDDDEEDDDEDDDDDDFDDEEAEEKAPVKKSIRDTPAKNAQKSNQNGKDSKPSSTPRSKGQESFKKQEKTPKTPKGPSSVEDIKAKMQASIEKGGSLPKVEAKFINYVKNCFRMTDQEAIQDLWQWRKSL
# procedure details: ITC

[
  {
    "binder": "MGRRFLVTVRIQRAGRPLQERVFLVKFVRSRRPRTAS [p19ARF(1-37) domain]",
    "readout units": "nM",
    "Kd": 280
  }
]

Every entry's value here was drawn from paper doi:10.1101/2020.05.07.057075.
